Data provenance: patent US20240254129A1

System under test: GST-tagged K-Ras mutant / His-tagged hSOS1 (Homo sapiens, UniProt P01116)
Sequence (P01116 whole entry G12D, form open): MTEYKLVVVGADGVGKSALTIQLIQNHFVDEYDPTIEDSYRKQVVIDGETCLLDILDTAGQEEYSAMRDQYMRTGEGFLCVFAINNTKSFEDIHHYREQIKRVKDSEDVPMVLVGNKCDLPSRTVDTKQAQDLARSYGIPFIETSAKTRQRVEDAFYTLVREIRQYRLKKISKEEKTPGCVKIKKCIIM
Test name: HTRF assay, K-Ras mutant / SOS1 interaction
Type: binding
Test parameters: compound nos. 102-196, general methodology of example 5; read-out: IC50 against mutant Kras
# reported IC50; entries follow

Nc1nc2c(-c3c(Cl)cc4c(N5CCNCC(F)(F)C5)nc(OCc5ccccn5)nc4c3F)cccc2s1: > 500 nM

So, CN(C)C1CN(c2nc(N3CCNCC(F)(F)C3)c3cc(Cl)c(-c4cccc5sc(N)nc45)c(F)c3n2)C1 ? Its IC50 was > 500 nM

Entry CN1CCC[C@H]1COc1nc(N2CCNC(=O)CC2)c2cc(Cl)c(-c3cccc4sc(N)nc34)c(F)c2n1 ; IC50 = < 500 nM

Given item Cc1ccc2[nH]nc(N)c2c1-c1c(Cl)cc2c(N3CCNCC(F)(F)C3)nc(OC[C@@H]3CCCN3C)nc2c1F , the value recorded as its IC50 is > 500 nM

Documented IC50 of N#CCC1CNCCN(c2nc(OCC34CCCN3CCC4)nc3c(F)c(-c4ccc(F)c5sc(N)nc45)c(Cl)cc23)C1 (stereo not drawn) [Compound 188] : < 500 nM

Measured IC50 of Cc1ccc2cnn(C)c2c1-c1c(Cl)cc2c(N3CCCCC(F)(F)C3)nc(OC[C@@]34CCCN3C[C@H](F)C4)nc2c1F : > 500 nM

IC50 measured on CN1CCC[C@H]1COc1nc(N2CCCC(O)CC2)c2cc(Cl)c(-c3cccc4sc(N)nc34)c(F)c2n1 (stereo partly drawn) = < 500 nM

Lookup result for CN1CCC[C@H]1COc1nc(N2CCCC(F)(F)CC2)c2cc(Cl)c(-c3cccc4sc(N)nc34)c(F)c2n1 ; measured IC50: > 500 nM

Per the record, Nc1nc2c(-c3c(Cl)cc4c(N5CCNCC(F)(F)C5)nc(OCC56CCCN5C[C@H](F)C6)nc4c3F)cccc2s1 (stereo partly drawn) has IC50 of < 500 nM

---

System under test: wildtype Kras / hSOS1 (Homo sapiens)
Construct: made in house; host or cells: E. coli BL21 (DE3)
Sequence (P01116 1-188 isoform P01116-2): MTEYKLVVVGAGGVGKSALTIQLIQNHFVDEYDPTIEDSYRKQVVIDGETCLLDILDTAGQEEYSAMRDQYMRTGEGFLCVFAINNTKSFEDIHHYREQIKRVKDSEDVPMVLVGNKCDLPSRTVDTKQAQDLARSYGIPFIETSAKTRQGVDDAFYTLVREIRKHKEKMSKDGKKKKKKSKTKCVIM
Test name: HTRF assay, wildtype Kras / SOS1 interaction
Assay type: binding
Test parameters: compound nos. 401-703; read-out: IC50 against wildtype Kras
pIC50: −log10 of the molar value.
pIC50 overview

Previously resolved entries follow.
CN1CCC[C@H]1COc1nc2c(c(N3CCNCC(F)(F)C3)n1)CCC(c1cccc3sc(N)nc13)C2 (stereo partly shown): > 6.30
Nc1nc2c(-c3c(Cl)cc4c(N5CC6CC5CCN6)nc(OC[C@@]56CCCN5C[C@H](F)C6)nc4c3F)ccc(F)c2s1 (stereo partly shown): < 6.30
Nc1nc2ccccc2n1-c1ccc2c(N3CC4CCC(C3)N4)nc(OCC34CCCN3CCC4)nc2c1F: < 6.30

Consider the record given below.
Notebook: Fc1c(-c2cccc3c2C2CC2C3)c(Cl)cc2c(N3CC4CCC(C3)N4)nc(OC[C@@]34CCCN3C[C@H](F)C4)nc12 (stereo partly shown) , pIC50 read as > 6.30

---

System under test: GST-tagged K-Ras mutant / His-tagged hSOS1 (Homo sapiens)
Test name: HTRF assay, K-Ras mutant / SOS1 interaction
Assay type: binding
Test parameters: compound nos. 401-703; read-out: IC50 against mutant Kras
pIC50: −log10 of the molar value.
Quantity measured: pIC50

N#Cc1c(N)sc2c(F)ccc(-c3c(Cl)cc4c(N5CC6CCC(C5)O6)nc(OC[C@@]56CCCN5C[C@H](F)C6)nc4c3F)c12 [Compound 583]: > 6.30
CN1CCC[C@H]1COc1nc(N2CCCCC(O)C2)c2cc(Cl)c(-c3cccc4sc(N)nc34)c(F)c2n1 (stereo partly drawn) [Compound 562]: > 6.30
Nc1nc2c(-c3c(Cl)cc4c(N5CC6CCC(CO)(C5)N6)nc(OC[C@@]56CCCN5C[C@H](F)C6)nc4c3F)ccc(F)c2s1 (stereo partly drawn): > 6.30
Nc1ccc(C2CC2)c(-c2ccc3c(N4CC5CCC(C4)N5)nc(OC[C@@]45CCCN4C[C@H](F)C5)nc3c2F)n1: < 6.30
Oc1cc(CN2CCc3nc(OCC45CCCN4CCC5)nc(N4CC5CCC(C4)N5)c3CC2)c2ccccc2c1: < 6.30
CN1CCC[C@H]1COc1nc(N2CCCC(NC3CC3)CC2)c2cc(Cl)c(-c3cccc4sc(N)nc34)c(F)c2n1 (stereo partly drawn) [Compound 559]: < 6.30
CS(=O)(=O)N1CCCN(c2nc(OC[C@@]34CCCN3C[C@H](F)C4)nc3c(F)c(-c4ccc(F)c5sc(N)nc45)c(Cl)cc23)CC1: > 6.30
Nc1c(-c2c(Cl)cc3c(N4CC5CCC(C4)N5)nc(OCC45CCCN4CCC5)nc3c2F)cccc1C(F)(F)F: < 6.30
CN1CCC[C@H]1COc1nc(N2CCCCC(N)C2)c2cc(Cl)c(-c3cccc4sc(N)nc34)c(F)c2n1 (stereo partly drawn) [Compound 442]: > 6.30
Nc1nc2c(-c3ccc4c(N5C[C@H]6CCNCC[C@H]6C5)nc(OC[C@@]56CCCN5C[C@H](F)C6)nc4c3F)ccc(F)c2s1: < 6.30

Sure, the documented pIC50 for N#Cc1n[nH]c2c(F)ccc(-c3c(Cl)cc4c(N5CC6CCC(C5)N6)nc(OC[C@@]56CCCN5C[C@H](F)C6)nc4c3F)c12 is < 6.30

The recorded pIC50 for entry Cc1ccc(C2(N)CC2)cc1-c1c(Cl)cc2c(N3CC4CCC(C3)N4)nc(OCC34CCCN3CCC4)nc2c1F equals < 6.30

Form: compound = Nc1cccc(-c2ccc(O)cc2-c2c(Cl)cc3c(N4CC5CCC(C4)N5)nc(OCC45CCCN4CCC5)nc3c2F)c1 ; pIC50 = < 6.30

Summary for this compound, Nc1nc2c(-c3c(Cl)cc4c(N5C[C@H]6CCNCC[C@H]6C5)nc(OC[C@@]56CCCN5C[C@H](F)C6)nc4c3F)ccc(F)c2s1 : pIC50 is > 6.30

For record CN1CCC[C@H]1COc1nc(N2CCCC(NC3CC3)CC2)c2cc(Cl)c(-c3cccc4sc(N)nc34)c(F)c2n1 (stereo partly drawn) [Compound 590] the listed pIC50 is < 6.30

Quick note, pIC50 for Nc1nc2c(-c3c(Cl)cc4c(N5CC6CCCC(C5)N6)nc(OC[C@@]56CCCN5C[C@H](F)C6)nc4c3F)ccc(F)c2s1 landed at > 6.30

Measured pIC50 of Nc1nc2c(-c3c(Cl)cc4c(N5CC6CCC(C5)O6)nc(OC[C@@]56CCCN5C[C@H](F)C6)nc4c3F)ccc(F)c2s1 : > 6.30

Query Cc1ccc2[nH]nc(C#N)c2c1-c1ccc2c(N3CC4CCC(C3)N4)nc(OC[C@@]34CCCN3C[C@H](F)C4)nc2c1F yields pIC50 of < 6.30

---

System under test: wildtype Kras / hSOS1 (Homo sapiens)
Construct: made in house; host or cells: E. coli BL21 (DE3)
Test name: HTRF assay, wildtype Kras / SOS1 interaction
Format: binding
Test parameters: compound nos. 102-196, general methodology of example 5; read-out: IC50 against wildtype Kras
Some molecules, each annotated with its measured IC50.

Use the examples below as a reference point.
N#CCC1CNCCN(c2nc(OCC34CCCN3CCC4)nc3c(F)c(-c4ccc(F)c5sc(N)nc45)c(Cl)cc23)C1 (stereo not drawn) [Compound 187]: < 500 nM
CN1CCC[C@H]1COc1nc(N2CCCC(F)(F)CC2)c2cc(Cl)c(-c3cccc4sc(N)nc34)c(F)c2n1 [Compound 119]: < 500 nM
Nc1nc2c(-c3c(Cl)cc4c(N5CCCOCC5)nc(OCC56CCCN5CCC6)nc4c3F)ccc(F)c2s1 [Compound 148]: < 500 nM
Cn1cnnc1COc1nc(N2CCNCC(F)(F)C2)c2cc(Cl)c(-c3cccc4sc(N)nc34)c(F)c2n1 [Compound 131]: > 500 nM
Nc1nc2c(-c3c(Cl)cc4c(N5CCNCC(F)(F)C5)nc(OCC56CCCN5CCC6)nc4c3F)cccc2s1 [Compound 105]: < 500 nM

Reported IC50 for CN1CCC[C@H]1COc1nc(N2CCCCC(F)C2)c2cc(Cl)c(-c3cccc4sc(N)nc34)c(F)c2n1 (stereo partly drawn) [Compound 181] was < 500 nM

Noted for CN1CCC[C@H]1COc1nc(N2CCNCC(F)(F)C2)c2cc(C#N)c(-c3cccc4sc(N)nc34)c(F)c2n1 [Compound 125] : its IC50 reads > 500 nM

Lab note: measured IC50 of CN1C[C@@H](F)C[C@H]1COc1nc(N2CCNCC(F)(F)C2)c2cc(Cl)c(-c3cccc4sc(N)nc34)c(F)c2n1 [Compound 130] was < 500 nM

Quick note, IC50 for CN1CCC[C@H]1COc1nc(N2CCNCC(F)(F)C2)c2cc(Cl)c(-c3cccc4oc(C#N)nc34)c(F)c2n1 [Compound 185] landed at > 500 nM

Per the record, Nc1nc2c(-c3c(Cl)cc4c(N5CCOCC(F)(F)C5)nc(OCC56CCCN5CCC6)nc4c3F)ccc(F)c2s1 [Compound 115] has IC50 of < 500 nM

GET /value?item= Cc1ccc2cnn(C)c2c1-c1c(Cl)cc2c(N3CCNCC(F)(F)C3)nc(OC[C@@]34CCCN3C[C@H](F)C4)nc2c1F [Compound 175] &field=IC50 returns < 500 nM

Recorded result, CN1CCC[C@H]1COc1nc(N2CCN(S(C)(=O)=O)CC(F)(F)C2)c2cc(Cl)c(-c3cccc4sc(N)nc34)c(F)c2n1 [Compound 140] , IC50: < 500 nM
